Kindly state protein stability index for each of the entries shown.
- System: Saccharomyces cerevisiae
- Protocol: protein stability index of tFT-peptide fusion (C-terminal peptide) (PSI (0-1 scale)); higher = more stable (slower turnover)
- Recorded Conditions: genetic background: das1 deletion; temperature: 30 C
Would you mind answering with just the numeric figure?

// query Check Saccharomyces cerevisiae data and give protein stability index for NYEDLATTQAAS [BRN1 C-terminal 12 aa] .
// result 0.722

// query Check Saccharomyces cerevisiae data and give protein stability index for KDKKDKKKKHRD [RPA34 C-terminal 12 aa] .
// result 0.704

// query Check Saccharomyces cerevisiae data and give protein stability index for AVYEELVHELFH [PSP1 C-terminal 12 aa] .
// result 0.72

// query Check Saccharomyces cerevisiae data and give protein stability index for VILSETVVILYY [YKR032W C-terminal 12 aa] .
// result 0.346

// query Check Saccharomyces cerevisiae data and give protein stability index for KSCDEDGQEDEA [TPA1 C-terminal 12 aa] .
// result 0.693

// query Check Saccharomyces cerevisiae data and give protein stability index for KMGQSFNAAGKF [TIM10 C-terminal 12 aa] .
// result 0.692

// query Check Saccharomyces cerevisiae data and give protein stability index for SYFNTIMHNCKP [SET4 C-terminal 12 aa] .
// result 0.725

// query Check Saccharomyces cerevisiae data and give protein stability index for LFQALKLEWEII [TEP1 C-terminal 12 aa] .
// result 0.704

// query Check Saccharomyces cerevisiae data and give protein stability index for PRLKAKKKVTKP [TFB4 C-terminal 12 aa] .
// result 0.687

// query Check Saccharomyces cerevisiae data and give protein stability index for TNWGQHKTVQNT [PPE1 C-terminal 12 aa] .
// result 0.698

// query Check Saccharomyces cerevisiae data and give protein stability index for DEMQDFLKKHAS [SWI6 C-terminal 12 aa] .
// result 0.731

// query Check Saccharomyces cerevisiae data and give protein stability index for EKLAALVENAEV [PUF3 C-terminal 12 aa] .
// result 0.68

// query Check Saccharomyces cerevisiae data and give protein stability index for SLYMNISYILLF [YGR073C C-terminal 12 aa] .
// result 0.45

// query Check Saccharomyces cerevisiae data and give protein stability index for VEIPTVESTKSG [RNA14 C-terminal 12 aa] .
// result 0.696

// query Check Saccharomyces cerevisiae data and give protein stability index for LRRSFAIYTLGH [MCM2 C-terminal 12 aa] .
// result 0.647

// query Check Saccharomyces cerevisiae data and give protein stability index for TRMSSPPPSTSS [SET2 C-terminal 12 aa] .
// result 0.695
